tested on: HCT-15 colon; experiment: NCI tumour cell line growth inhibition, 48 h
I'd appreciate it if you could supply TGI values for the items below.

compound: O=C(NN=C1CCCCC1)NN=C1CCCCC1
assayedTarget: HCT-15 colon
TGI: > 100 µM

Count: 3. Required value per item: TGI.
1. COc1ccc(C2C(Cl)C(=O)N2NC(=O)Cc2ccccc2)cc1OC (centres undefined)
2. COc1c(N2CCN(Cn3c(O)c(N=NC(=O)c4ccncc4)c4cc(F)ccc43)C(C)C2)c(F)cc2c(=O)c(C(=O)O)cn(C3CC3)c12 (centres undefined)
3. O=c1c2c3c(sc2n2c(-c4ccc(Br)cc4)nnc2n1Cc1ccccc1)CCCC3

1. > 100 µM
2. > 50 µM
3. 17.8 µM
